# Test system: CAKI-1
# assayComment: NCI tumour cell line growth inhibition, 48 h
The source made the active and inactive calls. No stated cut-off is given here; in the data, active = GI50 up to about 1.1 µM and inactive = higher.
Classes used: label 1 for active, label 0 for inactive

{"compound": "CCOC(=O)/C=C/C1OC(C)(C)OC1/C=C/C(=O)OCC (stereo unspecified)", "assayedTarget": "CAKI-1", "group": "label 0"}
{"compound": "O=C(c1ccc(Cl)cc1)N(C(=S)OCc1ccccn1)c1ccccc1", "assayedTarget": "CAKI-1", "group": "label 0"}
{"compound": "CC1CN1c1c(C(=O)/C=C/c2ccc(Cl)cc2)c(-c2ccccc2)nn(C)c1=O (stereo unspecified)", "assayedTarget": "CAKI-1", "group": "label 0"}
{"compound": "COc1cc(N(C)C)c(OC)cc1/C=C\\c1ccnc2ccccc12", "assayedTarget": "CAKI-1", "group": "label 0"}
{"compound": "COc1ccccc1/C=C1/Sc2scc(CC(=O)Nc3ccccc3)[n+]2C1=O", "assayedTarget": "CAKI-1", "group": "label 0"}
{"compound": "O=[N+]([O-])C(=C(\\Cl)NCCO)/C(Cl)=C(/Cl)Br", "assayedTarget": "CAKI-1", "group": "label 1"}
{"compound": "O=[N+]([O-])/C=C/c1cn(CCCCCn2cc(/C=C/[N+](=O)[O-])c3ccccc32)c2ccccc12", "assayedTarget": "CAKI-1", "group": "label 0"}
{"compound": "C/C(=C\\CNc1ncnc2[nH]c(Cl)nc12)CO", "assayedTarget": "CAKI-1", "group": "label 0"}
{"compound": "O=c1o[nH]/c(=N/c2ccccc2)n1-c1ccccc1", "assayedTarget": "CAKI-1", "group": "label 0"}
{"compound": "OC1=C(c2ccccc2)C2=NCCN2c2ccccc21", "assayedTarget": "CAKI-1", "group": "label 0"}
{"compound": "C/C(=N/Nc1nc(C)cc(O)n1)C(=O)O", "assayedTarget": "CAKI-1", "group": "label 0"}
{"compound": "COc1ccc(C(=O)Oc2c(C#N)sc3c2c(=O)n(-c2ccccc2)c(=S)n3-c2ccccc2)cc1", "assayedTarget": "CAKI-1", "group": "label 0"}
{"compound": "O=c1c2ccccc2nnn1-c1n[nH]c2ccccc12", "assayedTarget": "CAKI-1", "group": "label 0"}
{"compound": "CC1CC(C)C(O)C(C2CC(CC(=O)NC3CCCCC3)CC(=O)O2)C1 (stereo unspecified)", "assayedTarget": "CAKI-1", "group": "label 0"}
{"compound": "CCCCCCNC(=S)N/N=C(\\C)c1ccccn1", "assayedTarget": "CAKI-1", "group": "label 1"}
{"compound": "NC(=O)C(Nc1c(Cl)cccc1Cl)c1cc2cc(Br)ccc2nc1Cl (stereo unspecified)", "assayedTarget": "CAKI-1", "group": "label 0"}
{"compound": "CCCCON1C[C@@H](O)C(O)[C@@H](O)C1 (stereo partly specified)", "assayedTarget": "CAKI-1", "group": "label 0"}
{"compound": "CCOC(=O)c1c(NC(=S)Nc2ccc(C)cc2)sc2c1CCN(C)C2", "assayedTarget": "CAKI-1", "group": "label 0"}
{"compound": "O=C(CN1CCCC1)Nc1ccc2c(c1)C1Oc3ccccc3CC1CO2 (stereo unspecified)", "assayedTarget": "CAKI-1", "group": "label 0"}
{"compound": "CC(=O)On1c(-c2ccccc2-c2nc3ccccc3n2OC(C)=O)nc2ccccc21", "assayedTarget": "CAKI-1", "group": "label 0"}
{"compound": "C#CCCCC(=C)C[C@H](OCc1ccccc1)[C@H]1OC(=O)[C@@H]1C", "assayedTarget": "CAKI-1", "group": "label 0"}
{"compound": "CC[C@@]1(N(C)C)C(=O)OCc2c1cc1n(c2=O)Cc2cc3ccccc3nc2-1", "assayedTarget": "CAKI-1", "group": "label 0"}
{"compound": "C(=N\\c1ccc(-c2cc(-c3ccccc3)nc3ccc4ccccc4c23)cc1)/c1ccccc1", "assayedTarget": "CAKI-1", "group": "label 0"}
{"compound": "c1ccc2c(CSCc3cccc4ccccc34)cccc2c1", "assayedTarget": "CAKI-1", "group": "label 0"}
{"compound": "COc1ccc(/C=C\\c2cc(OC)c3c(c2)OCO3)c(O)c1O", "assayedTarget": "CAKI-1", "group": "label 0"}
{"compound": "CCc1cccc(C(C)CC)c1NC(=O)C(=O)Cc1nc2ccccc2o1 (stereo unspecified)", "assayedTarget": "CAKI-1", "group": "label 0"}
